// provenance: ChEMBL document CHEMBL1153380

- PROCEDURE_TEXT: Cmax in Sprague-Dawley rat at 3 mg/kg, po
- Format: ADME, organism-based
- Design: dose 3 mg/kg, route oral
- MEASUREMENT_CONDITIONS: in vivo
READOUT_NAME: Cmax (nM)

INSERT INTO results (structure_notation, reported_result) VALUES
  ('Cc1csc(NC(=O)c2cc(Oc3ccc(S(C)(=O)=O)cc3)cc(OC(C)C)c2)n1', 2900);

====

- PROCEDURE_TEXT: Total clearance in Sprague-Dawley rat at 1 mg/kg, iv
- Format: ADME, organism-based
- Parameters: dose 1 mg/kg, route intravenous
- MEASUREMENT_CONDITIONS: in vivo
READOUT_NAME: clearance (mL/min/kg)

INSERT INTO measurements (structure_notation, units_label, reported_result) VALUES
  ('Cc1csc(NC(=O)c2cc(Oc3ccc(S(C)(=O)=O)cc3)cc(OC(C)C)c2)n1', 'mL/min/kg', 4.1);
